test system: hyperlipoidemia model of Goldenhamsters (blood plasma TC, TG, HDL-C, LDL-C); test: Pharmacodynamic test group 3: effects on blood lipid levels of Goldenhamsters in a hyperlipoidemia model; assay type: in vivo; conditions: baseline of the group before administration; high-lipid feed 2 weeks; blood plasma; x±s, 6 animals
readout_name: HDL-C, before administration
Respond numerically, and do not add a unit to the figure.

// below: answered compounds
Q: For CCOC(=O)C(CC)Oc1ccc(C(F)(F)c2ccc(Cl)cc2)cc1 (centres unmarked) [HS003-023] , what is its reported HDL-C, before administration?
Result: 2.76

Q: Try CC(C)OC(=O)C(C)(C)Oc1ccc(C(F)(F)c2ccc(Cl)cc2)cc1 [HS003-004] next.
Result: 2.54

Q: Then this compound: COC(=O)C(C)Oc1ccc(C(F)(F)c2ccc(Cl)cc2)cc1 (centres unmarked) [HS003-024]
Result: 2.76

***
Q: Which HDL-C, before administration value belongs to COC(=O)C(CCO)Oc1ccc(C(F)(F)c2ccc(Cl)cc2)cc1 (centres unmarked) [HS003-031] ?
Result: 2.82

Q: Let us now turn to CC(C)OC(=O)C(C)(C)Oc1ccc(C(F)(F)c2ccccc2)cc1 [HS003-008]
Result: 2.86

---

system: hyperlipoidemia model of Goldenhamsters (blood plasma TC, HDL-C, LDL-C); test: Pharmacological test group 2: effects on blood lipid levels of Goldenhamsters in hyperlipoidemia model; assay type: in vivo; conditions: baseline of the group before administration; high-lipid feed 2 weeks; blood plasma; x±s, 6 animals
Reported LDL-C, before administration values for a set of molecules
// response body must contain only the number

Q: // map Cc1cc(OC(C)(C)C(=O)OC(C)C)ccc1C(F)(F)c1ccc(Cl)cc1 [HS003-019] to recorded LDL-C, before administration (system: hyperlipoidemia model of Goldenhamsters (blood plasma TC, HDL-C, LDL-C))
Result: 3.12

Q: Further, for CC(C)OC(=O)C(C)(C)Oc1ccc(C(F)(F)c2ccc(Cl)cc2)cc1 [HS003-004] ?
Result: 3.26

Q: Same question, CC(C)OC(=O)C(C)(C)Oc1ccc(C(F)(F)c2ccc(Cl)cc2)cc1Cl [HS003-020] this time
Result: 3.94

Q: // query: Cc1ccccc1C(F)(F)c1ccc(OC(C)(C)C(=O)OC(C)C)cc1 [HS003-015]
Result: 3.14

***
Q: Notebook: pull reported LDL-C, before administration for hyperlipoidemia model of Goldenhamsters (blood plasma TC, HDL-C, LDL-C), entry CC(C)OC(=O)C(C)(C)Oc1ccc(C(F)(F)c2cccc(Cl)c2)cc1 [HS003-011]
Result: 4.02

Q: Could you do the same for CC(C)OC(=O)C(C)(C)Oc1ccc(C(F)(F)c2ccccc2Cl)cc1 [HS003-014] , please?
Result: 3.36
